- ASSAY_REMARKS: Half life in Dunkin-Hartley guinea pig plasma at 5 mM by HPLC analysis
- Format: ADME, cell-free, Cavia porcellus
- EXPERIMENTAL_PARAMETERS: Dunkin-Hartley
ENDPOINT_NAME: half-life at 5000 µM (min)
Value expressed in min; do not type the unit.

Consider the compound CC(C)OC(=O)OC(C)OC(=O)C1=C(S[C@@H]2CN[C@H](C(=O)N(C)C)C2)[C@H](C)[C@@H]2[C@@H]([C@@H](C)O)C(=O)N12 (stereo partly specified) and give its measured half-life at 5000 µM.
1.4

###

Can you tell me log10 t1/2 for the items I'm about to list?
- System: Plasma
- ASSAY_REMARKS: Half life in human plasma at 5 mM by HPLC analysis
- Type: ADME, cell-free
- EXPERIMENTAL_PARAMETERS: 5000 µM
Plainly stated, the numbers are log10 of t1/2 given in min.

I'd like to know its log10 t1/2. The molecule in question is C[C@@H](O)[C@H]1C(=O)N2C(C(=O)OCOC(=O)OC3CCCc4ccccc4C3)=C(S[C@@H]3CN[C@H](C(=O)N(C)C)C3)[C@H](C)[C@H]12 (mixture of isomers)
1.36

For the molecule shown here, C[C@@H](O)[C@H]1C(=O)N2C(C(=O)OCOC(=O)OC3CCc4ccccc4C3)=C(S[C@@H]3CN[C@H](C(=O)N(C)C)C3)[C@H](C)[C@H]12 (mixture of isomers) , give the reported log10 t1/2.
0.91

Which value of log10 t1/2 has been reported for C[C@@H](O)[C@H]1C(=O)N2C(C(=O)OCOC(=O)O[C@@H]3CCCCc4ccccc43)=C(S[C@@H]3CN[C@H](C(=O)N(C)C)C3)[C@H](C)[C@H]12 in the records?
1.53

If you can, please state the reported log10 t1/2 value of CC(C)OC(=O)OC(C)OC(=O)C1=C(S[C@@H]2CN[C@H](C(=O)N(C)C)C2)[C@H](C)[C@@H]2[C@@H]([C@@H](C)O)C(=O)N12 (single isomer, unassigned; diastereomer 1) .
2.03

Consider the molecule shown here: C[C@@H](O)[C@H]1C(=O)N2C(C(=O)OCOC(=O)OC3Cc4ccccc4C3)=C(S[C@@H]3CN[C@H](C(=O)N(C)C)C3)[C@H](C)[C@H]12 What is its recorded log10 t1/2?
0.63

Would you kindly share the measured log10 t1/2 for C[C@@H](O)[C@H]1C(=O)N2C(C(=O)OCOC(=O)O[C@H]3CCCCc4ccccc43)=C(S[C@@H]3CN[C@H](C(=O)N(C)C)C3)[C@H](C)[C@H]12 ?
1.64
